B1: CPEB3 Ribozyme (parent)
chain: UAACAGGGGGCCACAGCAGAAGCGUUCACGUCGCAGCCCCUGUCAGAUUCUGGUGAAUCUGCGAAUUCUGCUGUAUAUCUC

variants of: B1; test: self-cleavage, relative activity (ratio to wild type); higher = more cleavage; in vitro, sequencing
So basically: self-cleavage at 0.2 or higher? That is t. Lower than 0.2? That is f.

mutation annotation	class assignment
G22C A64U	f
A28G C62G	t
U1C U60A	t
U54C U69A	t
A45U C50G	f

Q. Threshold query (self-cleavage >= 0.2) on A18C U66C
A. t

Q. Follow-up item: U43G
A. t

Q. Follow-up item: U1G U48C
A. t

Q. Follow-up item: U49C A75G
A. t

Q. Follow-up item: G16A U41G
A. f

Q. Follow-up item: U25A G46A
A. f
